Values were extracted from paper PMC6283615.

# PROTOCOL_NOTES: Human liver microsome intrinsic clearance
# Assay type: in vitro ADME
# STUDY_CONDITIONS: liver microsomes
Use 300 µL/min/mg as the dividing line for microsomal CLint, with the line itself on the TRUE side and lower values as FALSE.

* CN1CCN(S(=O)(=O)c2ccc(-c3ccc4c(Nc5ccc(OCc6cccc(F)c6)c(Cl)c5)ccnc4c3)cc2)CC1 [Compound 1] | FALSE
* Cc1ccc(Nc2ccnc3cc(-c4ccc(S(=O)(=O)N5CCN(C)CC5)cc4)ccc23)cc1Cl [Compound 8] | FALSE
* CN1CCN(c2ncc(-c3ccc4c(Nc5ccc(OCc6cccc(F)c6)c(Cl)c5)ccnc4c3)cn2)CC1 [Compound 14] | FALSE
* CN1CCN(S(=O)(=O)c2ccc(-c3ccc4c(Nc5ccc(C(F)(F)F)nc5)ccnc4c3)cc2)CC1 [Compound 12] | TRUE
* CN1CCN(S(=O)(=O)c2ccc(-c3ccc4c(Nc5ccc(OC(F)(F)F)cc5)ccnc4c3)cc2)CC1 [Compound 10] | FALSE

Determine whether measured microsomal CLint meets or exceeds 300 µL/min/mg for CN1CCN(c2ccnc(Nc3ccc4c(Nc5ccc(OCc6cccc(F)c6)c(Cl)c5)ccnc4c3)n2)CC1 [Compound 19] FALSE

Determine whether measured microsomal CLint meets or exceeds 300 µL/min/mg for COc1ccc(Nc2ccnc3cc(-c4ccc(S(=O)(=O)N5CCN(C)CC5)cc4)ccc23)cc1Cl [Compound 6] FALSE

Determine whether measured microsomal CLint meets or exceeds 300 µL/min/mg for Cc1ccc(Nc2ccnc3cc(-c4ccc(S(=O)(=O)N5CCN(C)CC5)cc4)ccc23)cn1 [Compound 11] TRUE

Determine whether measured microsomal CLint meets or exceeds 300 µL/min/mg for CN1CCN(c2nsnc2-c2ccc3c(Nc4ccc(OCc5cccc(F)c5)c(Cl)c4)ccnc3c2)CC1 [Compound 15] FALSE

Determine whether measured microsomal CLint meets or exceeds 300 µL/min/mg for COc1ccc(Nc2ccnc3cc(-c4ccc(S(=O)(=O)N5CCN(C)CC5)cc4)ccc23)cc1 [Compound 9] TRUE

Determine whether measured microsomal CLint meets or exceeds 300 µL/min/mg for Fc1cccc(COc2ccc(Nc3ccnc4cc(-c5cn[nH]c5)ccc34)cc2Cl)c1 [Compound 16] FALSE

Determine whether measured microsomal CLint meets or exceeds 300 µL/min/mg for CN1CCN(S(=O)(=O)c2cccc(-c3ccc4c(Nc5ccc(OCc6cccc(F)c6)c(Cl)c5)ccnc4c3)c2)CC1 [Compound 13] FALSE

Determine whether measured microsomal CLint meets or exceeds 300 µL/min/mg for CC(C)(C)OC(=O)Nc1ccc2c(Nc3ccc(OCc4cccc(F)c4)c(Cl)c3)ccnc2c1 [Compound 21] FALSE

Determine whether measured microsomal CLint meets or exceeds 300 µL/min/mg for CN1CCN(S(=O)(=O)c2ccc(-c3ccc4c(Nc5cccc(Cl)c5)ccnc4c3)cc2)CC1 [Compound 7] FALSE

---

# PROTOCOL_NOTES: Aqueous solubility
# Assay type: physicochemical
I'd appreciate it if you could supply solubility values for the items below.

Look over these answered cases.
* CN1CCN(S(=O)(=O)c2ccc(-c3ccc4c(Nc5cnccn5)ccnc4c3)cc2)CC1 | 4.2 µM
* CN1CCN(S(=O)(=O)c2cccc(-c3ccc4c(Nc5ccc(OCc6cccc(F)c6)c(Cl)c5)ccnc4c3)c2)CC1 | < 1 µM

// below: solubility requested for another molecule
// solubility lookup, key: CN1CCN(S(=O)(=O)c2ccc(-c3ccc4c(Nc5ccc(OCc6cccc(F)c6)c(Cl)c5)ccnc4c3)cc2)CC1 0.3 µM

---

# PROTOCOL_NOTES: Human plasma protein binding
# Assay type: in vitro ADME
RESULT_TYPE: Human PPB (%)
Give bare numbers, in %.

Look over these answered cases.
• Cc1n[nH]c(C)c1Nc1ccc2c(Nc3cnccn3)ccnc2c1 [NEU-2146] = 68
• Cn1ccnc1Nc1ccc2c(Nc3cnccn3)ccnc2c1 [NEU-2147] = 57
• CN1CCN(S(=O)(=O)c2ccc(-c3ccc4c(Nc5cnc(C#N)cn5)ccnc4c3)cc2)CC1 [NEU-1024] = 97
• CN1CCN(S(=O)(=O)c2ccc(-c3ccc4c(Nc5ccc6[nH]nnc6c5)ccnc4c3)cc2)CC1 [NEU-1018] = 98

// below: Human PPB requested for another molecule
// Human PPB lookup, key: Cc1nn(C)c(C)c1Nc1ccc2c(Nc3cnccn3)ccnc2c1 [NEU-2142] 59

---

# PROTOCOL_NOTES: Plasma and brain pharmacokinetics after single i.p. dose
# Format: in vivo
# STUDY_CONDITIONS: female, BALB/c, mouse, brain/plasma, ip, 10 mg/kg, AUClast based; 10 mg/kg i.p., female BALB/c mice; read-out: Brain to plasma exposure ratio
RESULT_TYPE: Kp

// Kp lookup, key: CN1CCN(c2ncc(-c3ccc4c(Nc5ccc(OCc6cccc(F)c6)c(Cl)c5)ccnc4c3)cn2)CC1 [Compound 14] 7.4

---

# Tested on: T. congolense IL3000
# PROTOCOL_NOTES: In vitro drug sensitivity assay for T. congolense (72 h)
# Assay type: cell-based
# STUDY_CONDITIONS: Trypanosoma congolense, IL3000 strain
Kindly apply the following: 1.0 if EC50 is less than 200 nM, 0.0 in every other case.

* COc1ccc(Nc2ccnc3cc(-c4cnc(N5CCN(C)CC5)nc4)ccc23)cc1Cl | 1.0

Criterion: EC50 strictly below 200 nM. Is it met by COc1ccc(Nc2ccnc3cc(-c4ccc(S(=O)(=O)N5CCN(C)CC5)cc4)ccc23)cc1Cl ? 0.0

---

# PROTOCOL_NOTES: LogD7.4
# Type: physicochemical
# STUDY_CONDITIONS: pH 7.4
I'd appreciate it if you could supply logD values for the items below.
Numbers only.

* Cc1ccc(Nc2ccnc3cc(-c4ccc(S(=O)(=O)N5CCN(C)CC5)cc4)ccc23)cn1 | 3.7
* CN1CCN(S(=O)(=O)c2cccc(-c3ccc4c(Nc5ccc(OCc6cccc(F)c6)c(Cl)c5)ccnc4c3)c2)CC1 | 4.8
* CN1CCN(S(=O)(=O)c2ccc(-c3ccc4c(Nc5ccc(OC(F)(F)F)cc5)ccnc4c3)cc2)CC1 | 4.5
* CN1CCN(c2ncc(-c3ccc4c(Nc5ccc(OCc6cccc(F)c6)c(Cl)c5)ccnc4c3)cn2)CC1 | 3.4
* COc1cnc(Nc2ccnc3cc(-c4ccc(S(=O)(=O)N5CCN(C)CC5)cc4)ccc23)cn1 | 4.2

// below: logD requested for another molecule
// logD lookup, key: CN1CCN(c2nsnc2-c2ccc3c(Nc4ccc(OCc5cccc(F)c5)c(Cl)c4)ccnc3c2)CC1 4.1

---

# System: NIH/3T3 cells
# PROTOCOL_NOTES: Drug toxicity to 3T3 cells (Alamar Blue, 96 h)
# Type: cell-based
RESULT_TYPE: 3T3 TC50

• Cc1cc(Nc2ccnc3cc(-c4ccc(S(=O)(=O)N5CCN(C)CC5)cc4)ccc23)sn1 = > 100 µM
• CN1CCN(c2ncc(-c3ccc4c(Nc5ccc6[nH]nnc6c5)ccnc4c3)cn2)CC1 = > 100 µM
• Cn1cc(Nc2ccc3c(Nc4cnccn4)ccnc3c2)cn1 = > 50 µM
• c1cnc(Nc2ccnc3cc(Nc4nccnn4)ccc23)cn1 = > 50 µM
• Cc1cc(Nc2ccc3c(Nc4cnccn4)ccnc3c2)sn1 = > 100 µM

Dear reader, for each entry below, please note its 3T3 TC50.
1. Cc1cc(Nc2ccc3c(Nc4cnccn4)ccnc3c2)on1
2. Cc1n[nH]c(C)c1Nc1ccc2c(Nc3cnccn3)ccnc2c1
3. COc1ccc(Nc2ccnc3cc(-c4ccc(C)o4)ccc23)cc1Cl

1: > 100 µM; 2: > 100 µM; 3: > 100 µM

---

# PROTOCOL_NOTES: Human liver microsome intrinsic clearance
# Assay type: in vitro ADME
RESULT_TYPE: Human Liver Microsome CLint (µL/min/mg)
Answers are plain numbers, in µL/min/mg.

• CN1CCN(c2ncc(-c3ccc4c(Nc5cnccn5)ccnc4c3)cn2)CC1 = 180
• COc1ccc(Nc2ccnc3cc(-c4cn[nH]c4)ccc23)cc1Cl = 8
• COc1ccc(Nc2ccnc3cc(-c4cnc(N5CCN(C)CC5)nc4)ccc23)cc1Cl = 170

Dear reader, for each entry below, please note its Human Liver Microsome CLint.
1. Cc1ccc(-c2ccc3c(Nc4cnccn4)ccnc3c2)o1
2. Cn1nccc1Nc1ccc2c(Nc3cnccn3)ccnc2c1
3. Cc1cc(Nc2ccc3c(Nc4cnccn4)ccnc3c2)sn1
4. CN1CCN(c2ncc(-c3ccc4c(Nc5ccc6[nH]nnc6c5)ccnc4c3)cn2)CC1
5. c1coc(-c2ccc3c(Nc4cnccn4)ccnc3c2)c1

[190, 10, 28, 120, 160]

---

# PROTOCOL_NOTES: Human plasma protein binding
# Format: in vitro ADME
# STUDY_CONDITIONS: read-out: Human PPB (converted)
I'd appreciate it if you could supply fraction unbound values for the items below.
Answers are plain numbers.

- COc1ncc(Nc2ccnc3cc(-c4ccc(S(=O)(=O)N5CCN(C)CC5)cc4)ccc23)cn1 [Compound 2]: 0.12

Dear reader, for each entry below, please note its fraction unbound.
1. CN1CCN(S(=O)(=O)c2ccc(-c3ccc4c(Nc5cnccn5)ccnc4c3)cc2)CC1 [Compound 4]
2. Cc1ccc(Nc2ccnc3cc(-c4ccc(S(=O)(=O)N5CCN(C)CC5)cc4)ccc23)cn1 [Compound 11]
3. COc1cnc(Nc2ccnc3cc(-c4ccc(S(=O)(=O)N5CCN(C)CC5)cc4)ccc23)cn1 [Compound 3]
4. CN1CCN(S(=O)(=O)c2ccc(-c3ccc4c(Nc5ccc(C(F)(F)F)nc5)ccnc4c3)cc2)CC1 [Compound 12]

0.06
0.08
0.03
0.02
